Each entry below lists one item and its recorded inhibition value.
- target_or_test_system: UniProt P81908
- Sequence (P81908 whole entry): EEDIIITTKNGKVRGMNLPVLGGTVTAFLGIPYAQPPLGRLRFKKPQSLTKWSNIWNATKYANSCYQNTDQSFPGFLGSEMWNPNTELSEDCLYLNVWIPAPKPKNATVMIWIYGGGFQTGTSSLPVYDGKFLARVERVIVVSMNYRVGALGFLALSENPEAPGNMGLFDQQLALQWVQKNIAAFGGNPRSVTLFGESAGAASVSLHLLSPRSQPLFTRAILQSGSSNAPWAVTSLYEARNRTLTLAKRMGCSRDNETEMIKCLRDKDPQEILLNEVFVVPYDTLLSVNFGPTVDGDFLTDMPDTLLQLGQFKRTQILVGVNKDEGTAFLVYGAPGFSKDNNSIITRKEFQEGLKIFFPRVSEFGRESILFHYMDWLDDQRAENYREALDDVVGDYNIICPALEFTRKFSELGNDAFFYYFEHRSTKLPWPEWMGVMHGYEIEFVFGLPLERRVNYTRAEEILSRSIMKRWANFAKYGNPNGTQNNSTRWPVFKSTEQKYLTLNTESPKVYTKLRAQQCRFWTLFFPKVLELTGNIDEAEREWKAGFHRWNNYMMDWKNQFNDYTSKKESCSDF
- experimental_protocol: Inhibition of equine serum BChE at 10 uM pre-incubated for 5 mins before butyrylthiocholine iodide substrate addition and measured after 2 mins
recorded_endpoint: inhibition (%)

[[record]]
input_smiles = "Cc1ccc(OCc2nc(CN(CC(C)C)C(=O)c3ccc4c(c3)OCO4)cs2)cc1"
unit_label = "%"
measured = 54

[[record]]
input_smiles = "Cc1ccc2cc(NC(=O)Cn3c(-c4nonc4N)nc4ccccc43)ccc2n1"
unit_label = "%"
measured = 96.5

[[record]]
input_smiles = "COc1ccc(C2=C(Nc3ccc4oc5ccccc5c4c3)c3ccccc3C2=O)cc1"
unit_label = "%"
measured = 4.03

